List of Human GLP-1 R activity (cAMP release), % activity with respect to control values.
Subject Of Test: Human GLP-1 receptor (Homo sapiens)
Construct: The full-length cDNA was cloned in pcDNA3.1(+); expressed in transfected cells
Sequence (P43220 24-463): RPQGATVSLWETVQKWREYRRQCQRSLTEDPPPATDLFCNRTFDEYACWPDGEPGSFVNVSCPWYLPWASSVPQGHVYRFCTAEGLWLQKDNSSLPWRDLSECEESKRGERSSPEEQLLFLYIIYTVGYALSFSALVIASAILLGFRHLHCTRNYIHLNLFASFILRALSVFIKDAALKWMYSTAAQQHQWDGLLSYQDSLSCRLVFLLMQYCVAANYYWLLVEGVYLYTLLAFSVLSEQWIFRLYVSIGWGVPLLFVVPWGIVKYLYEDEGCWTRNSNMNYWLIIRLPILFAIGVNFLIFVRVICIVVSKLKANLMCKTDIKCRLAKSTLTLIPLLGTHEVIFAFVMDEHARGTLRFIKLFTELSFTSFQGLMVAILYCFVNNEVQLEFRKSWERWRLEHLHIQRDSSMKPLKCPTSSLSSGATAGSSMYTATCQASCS
Assay type: cell-based
Cond: 10 nM test compound
Description: The novel peptidomimetics were screened for Human GLP-1 receptor (HGLP-1 R) agonist activity (in vitro), using the cAMP cell-based assay, in stably transfected CHO/human GLP1R cells. […] The trypsin was inactivated using Ham's F12 medium containing 10% NBCS and the cells were suspended in 2 ml of complete medium. […] Data is calculated as percent of control (Vehicle: water) and expressed as Mean±SD.
Measured Attribute: Human GLP-1 R activity (cAMP release), % activity with respect to control (%)

compound="CCc1cc(OC)ccc1-c1ccc(CC(NC(=O)[C@H](CC(=O)O)NC(=O)[C@H](CO)NC(=O)[C@@H](NC(=O)C(C)(Cc2ccccc2F)NC(=O)[C@@H](NC(=O)CNC(=O)[C@H](CCC(N)=O)NC(=O)C(C)(C)NC(=O)[C@@H](N)Cc2c[nH]cn2)[C@@H](C)O)[C@@H](C)O)C(=O)NC(Cc2ccc(-c3ccccc3F)cc2)C(N)=O)cc1 (single isomer, unassigned)" numeric_result=99
compound="CCc1cc(OC)ccc1-c1ccc(CC(NC(=O)[C@H](CC(=O)O)NC(=O)[C@H](CO)NC(=O)[C@@H](NC(=O)[C@H](Cc2ccccc2)NC(=O)[C@@H](NC(=O)CNC(=O)[C@H](CCC(N)=O)NC(=O)C(C)(C)NC(=O)[C@@H](N)Cc2c[nH]cn2)[C@@H](C)O)[C@@H](C)O)C(=O)NC(Cc2ccc(-c3ccccc3C)nc2)C(N)=O)cc1 (single isomer, unassigned)" numeric_result=94
compound="CCc1cc(OC)ccc1-c1ccc(CC(NC(=O)[C@H](CC(=O)O)NC(=O)[C@H](CO)NC(=O)[C@@H](NC(=O)C(C)(Cc2ccccc2F)NC(=O)[C@@H](NC(=O)CNC(=O)[C@H](CCC(N)=O)NC(=O)C2(NC(=O)[C@@H](N)Cc3c[nH]cn3)CC2)[C@@H](C)O)[C@@H](C)O)C(=O)NC(Cc2ccc(-c3ccccc3C(F)(F)F)cc2)C(N)=O)cc1 (single isomer, unassigned)" numeric_result=99

----------
Entries and their measured % degradation in 24 h when incubated with DPP-IV enzyme follow.
Subject Of Test: DPP IV (Homo sapiens, UniProt P27487)
Sequence (P27487 whole entry, species assumed): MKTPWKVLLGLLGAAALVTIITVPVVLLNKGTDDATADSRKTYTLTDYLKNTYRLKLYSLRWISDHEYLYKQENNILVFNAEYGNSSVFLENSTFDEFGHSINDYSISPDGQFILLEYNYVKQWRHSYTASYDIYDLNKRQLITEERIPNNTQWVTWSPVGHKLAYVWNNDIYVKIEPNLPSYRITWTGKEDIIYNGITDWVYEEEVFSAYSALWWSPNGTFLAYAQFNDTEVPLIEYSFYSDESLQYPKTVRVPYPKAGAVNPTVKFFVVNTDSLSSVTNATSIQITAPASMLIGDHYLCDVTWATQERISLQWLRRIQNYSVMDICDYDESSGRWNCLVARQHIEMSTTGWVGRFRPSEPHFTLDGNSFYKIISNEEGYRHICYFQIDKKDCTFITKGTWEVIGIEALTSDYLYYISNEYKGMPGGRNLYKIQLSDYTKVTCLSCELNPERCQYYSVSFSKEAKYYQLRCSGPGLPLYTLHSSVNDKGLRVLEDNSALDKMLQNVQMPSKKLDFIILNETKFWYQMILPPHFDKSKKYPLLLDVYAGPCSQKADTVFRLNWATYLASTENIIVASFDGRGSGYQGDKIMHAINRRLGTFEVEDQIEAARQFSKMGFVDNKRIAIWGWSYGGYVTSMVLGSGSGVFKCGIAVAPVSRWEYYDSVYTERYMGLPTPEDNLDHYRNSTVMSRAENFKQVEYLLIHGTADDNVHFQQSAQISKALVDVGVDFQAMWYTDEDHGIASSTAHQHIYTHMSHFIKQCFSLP
Assay Info: Stability against DPP IV enzyme
Assay type: in vitro ADME
Cond: 2 μM, 37° C., 24 h
Measured Attribute: % degradation in 24 h when incubated with DPP-IV enzyme (%)

molecule="CCc1cc(OC)ccc1-c1ccc(CC(NC(=O)[C@H](CC(=O)O)NC(=O)[C@H](CO)NC(=O)[C@@H](NC(=O)[C@H](Cc2ccccc2)NC(=O)[C@@H](NC(=O)CNC(=O)[C@H](CCC(N)=O)NC(=O)[C@H](CO)NC(=O)[C@@H](N)Cc2c[nH]cn2)[C@@H](C)O)[C@@H](C)O)C(=O)NC(Cc2ccc(-c3ccccc3C)nc2)C(N)=O)cc1 (single isomer, unassigned)" subject_of_test="DPP IV (Homo sapiens, UniProt P27487)" numeric_result=75
molecule="CCc1cc(OC)ccc1-c1ccc(CC(NC(=O)[C@H](CC(=O)O)NC(=O)[C@H](CO)NC(=O)[C@@H](NC(=O)[C@H](Cc2ccccc2)NC(=O)[C@@H](NC(=O)CNC(=O)[C@H](CCC(N)=O)NC(=O)C(C)(C)NC(=O)[C@@H](N)Cc2c[nH]cn2)[C@@H](C)O)[C@@H](C)O)C(=O)NC(Cc2ccc(-c3ccccc3C)nc2)C(N)=O)cc1 (single isomer, unassigned)" subject_of_test="DPP IV (Homo sapiens, UniProt P27487)" numeric_result=00
molecule="CCc1cc(OC)ccc1-c1ccc(CC(NC(=O)[C@H](CC(=O)O)NC(=O)[C@H](CO)NC(=O)[C@@H](NC(=O)[C@H](Cc2ccccc2)NC(=O)[C@@H](NC(=O)CNC(=O)[C@H](CCC(N)=O)NC(=O)C2(NC(=O)[C@@H](N)Cc3c[nH]cn3)CC2)[C@@H](C)O)[C@@H](C)O)C(=O)NC(Cc2ccc(-c3ccccc3C)nc2)C(N)=O)cc1 (single isomer, unassigned)" subject_of_test="DPP IV (Homo sapiens, UniProt P27487)" numeric_result=00
